TGT: UniProtKB P06213
Sequence (P06213 28-1382): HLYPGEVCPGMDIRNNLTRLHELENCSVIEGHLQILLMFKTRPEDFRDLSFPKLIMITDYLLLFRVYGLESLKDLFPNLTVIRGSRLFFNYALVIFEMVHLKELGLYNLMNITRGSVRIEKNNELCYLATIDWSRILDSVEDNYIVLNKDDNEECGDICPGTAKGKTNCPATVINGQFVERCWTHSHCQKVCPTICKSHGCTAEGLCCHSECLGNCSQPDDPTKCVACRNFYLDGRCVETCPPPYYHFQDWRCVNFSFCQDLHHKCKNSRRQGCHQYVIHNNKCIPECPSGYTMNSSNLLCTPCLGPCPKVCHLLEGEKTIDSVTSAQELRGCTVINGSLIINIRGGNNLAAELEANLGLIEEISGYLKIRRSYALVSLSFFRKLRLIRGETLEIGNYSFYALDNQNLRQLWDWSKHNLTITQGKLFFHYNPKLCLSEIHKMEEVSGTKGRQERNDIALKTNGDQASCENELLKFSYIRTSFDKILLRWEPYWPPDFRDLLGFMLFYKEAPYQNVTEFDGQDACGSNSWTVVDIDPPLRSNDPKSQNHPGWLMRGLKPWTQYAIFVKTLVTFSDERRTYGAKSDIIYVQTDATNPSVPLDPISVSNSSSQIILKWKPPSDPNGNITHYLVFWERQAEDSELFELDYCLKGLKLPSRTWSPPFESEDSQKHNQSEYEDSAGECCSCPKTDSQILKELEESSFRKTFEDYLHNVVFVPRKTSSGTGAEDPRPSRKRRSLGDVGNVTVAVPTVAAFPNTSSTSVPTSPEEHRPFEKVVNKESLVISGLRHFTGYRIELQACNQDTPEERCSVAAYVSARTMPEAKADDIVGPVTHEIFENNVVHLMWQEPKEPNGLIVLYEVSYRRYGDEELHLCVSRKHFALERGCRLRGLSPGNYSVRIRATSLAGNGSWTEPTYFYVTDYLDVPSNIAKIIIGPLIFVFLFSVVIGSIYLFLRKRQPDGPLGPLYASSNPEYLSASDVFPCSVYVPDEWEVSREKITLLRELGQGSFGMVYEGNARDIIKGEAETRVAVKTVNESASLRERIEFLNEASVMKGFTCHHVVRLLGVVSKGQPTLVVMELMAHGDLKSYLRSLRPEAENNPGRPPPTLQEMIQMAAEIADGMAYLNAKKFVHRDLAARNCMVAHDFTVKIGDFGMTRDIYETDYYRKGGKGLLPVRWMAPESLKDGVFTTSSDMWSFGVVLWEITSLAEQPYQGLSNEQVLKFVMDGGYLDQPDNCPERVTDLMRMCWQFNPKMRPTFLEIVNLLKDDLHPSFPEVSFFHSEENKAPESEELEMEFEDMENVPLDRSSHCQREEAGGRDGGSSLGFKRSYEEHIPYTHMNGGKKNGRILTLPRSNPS
Give measured IC50 for each item. Keep answers brief.

## Input Bench note: what IC50 did CNC(=O)c1cccc(C)c1Nc1nc(Nc2ccc(N3CCN(C4C5CC6CC(C5)CC4C6)CC3)cc2OC)ncc1C(F)(F)F (stereo not drawn) show?
## Output > 10 µM

## Input Bench note: what IC50 did `CNC(=O)c1cccc(C)c1Nc1nc(Nc2ccc(NC(=O)[C@]34CC5CC(C3)[C@H](N3CC[C@H](NC(C)=O)C3)C(C5)C4)cc2OC)ncc1C(F)(F)F` show?
## Output > 10 µM

## Input Bench note: what IC50 did CNC(=O)c1cccc(C)c1Nc1nc(Nc2ccc(NC3C4CC5CC(C4)CC3C5)cc2OC)ncc1C(F)(F)F (stereo not drawn) show?
## Output > 10 µM

## Input Bench note: what IC50 did CNC(=O)c1cccc(C)c1Nc1nc(Nc2ccc(OC3CCN(C4C5CC6CC(C5)CC4C6)CC3)cc2OC)ncc1C(F)(F)F (stereo not drawn) show?
## Output > 10 µM

## Input Bench note: what IC50 did `CNC(=O)c1cccc(C)c1Nc1nc(Nc2ccc(NC(=O)[C@]34CC5CC(C3)[C@@H](N3CC[C@H](N)C3)C(C5)C4)cc2OC)ncc1C(F)(F)F` show?
## Output 3.8 µM

## Input Bench note: what IC50 did CNC(=O)c1cccc(C)c1Nc1nc(Nc2ccc(OC34CC5CC(C3)C(O)C(C5)C4)cc2OC)ncc1C(F)(F)F (stereo not drawn) show?
## Output > 10 µM

----------
Give measured IC50 for each item. Keep answers brief.
TGT: FAK (Homo sapiens)
Sequence (Q05397 whole entry): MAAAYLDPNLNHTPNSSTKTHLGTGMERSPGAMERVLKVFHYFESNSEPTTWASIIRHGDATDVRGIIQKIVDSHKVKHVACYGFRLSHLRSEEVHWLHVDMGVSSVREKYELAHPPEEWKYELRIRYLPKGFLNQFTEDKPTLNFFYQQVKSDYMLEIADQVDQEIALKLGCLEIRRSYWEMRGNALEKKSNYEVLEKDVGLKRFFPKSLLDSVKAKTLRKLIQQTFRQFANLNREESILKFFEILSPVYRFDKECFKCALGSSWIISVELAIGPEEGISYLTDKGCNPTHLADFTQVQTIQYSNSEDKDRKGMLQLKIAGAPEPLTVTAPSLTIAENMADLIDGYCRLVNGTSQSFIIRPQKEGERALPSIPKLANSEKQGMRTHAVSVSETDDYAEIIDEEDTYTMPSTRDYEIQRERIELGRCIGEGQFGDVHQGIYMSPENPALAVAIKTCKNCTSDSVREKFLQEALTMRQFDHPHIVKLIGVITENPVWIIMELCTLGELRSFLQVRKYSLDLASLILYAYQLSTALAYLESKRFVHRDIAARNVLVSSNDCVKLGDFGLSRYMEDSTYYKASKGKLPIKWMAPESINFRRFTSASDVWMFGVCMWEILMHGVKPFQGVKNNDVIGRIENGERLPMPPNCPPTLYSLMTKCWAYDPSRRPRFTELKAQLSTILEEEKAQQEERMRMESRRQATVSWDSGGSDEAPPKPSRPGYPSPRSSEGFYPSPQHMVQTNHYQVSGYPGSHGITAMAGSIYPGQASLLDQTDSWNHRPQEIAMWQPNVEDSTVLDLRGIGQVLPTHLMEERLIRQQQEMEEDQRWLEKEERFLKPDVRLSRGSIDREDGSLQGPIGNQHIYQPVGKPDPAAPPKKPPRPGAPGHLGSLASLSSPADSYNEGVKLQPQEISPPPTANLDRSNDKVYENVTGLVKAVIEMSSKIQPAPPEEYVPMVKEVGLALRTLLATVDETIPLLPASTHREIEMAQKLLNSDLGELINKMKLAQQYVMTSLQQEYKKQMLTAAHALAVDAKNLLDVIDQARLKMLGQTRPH
TEST_PROTOCOL: FAK [pY397] ELISA in MDA-MB-231 cells
Type: cell-based
Design: endogenous in cells; host or cells: MDA-MB-231
MEASUREMENT_SETUP: MDA-MB-231, treated for one hour, Table 2; read-out: FAK inhibitory activity (IC50)
State just the number; it will be interpreted in nM.

## Input Bench note: what IC50 did `CNC(=O)c1cccc(C)c1Nc1nc(Nc2ccc(OC34CC5CC(C3)C(=O)C(C5)C4)cc2OC)ncc1C(F)(F)F` show?
## Output 382

## Input Bench note: what IC50 did `CNC(=O)c1cccc(C)c1Nc1nc(Nc2ccc(NC(=O)[C@]34CC5CC(C3)[C@@H](N3CC[C@H](NC(C)=O)C3)C(C5)C4)cc2OC)ncc1C(F)(F)F` show?
## Output 55

## Input Bench note: what IC50 did CNC(=O)c1cccc(C)c1Nc1nc(Nc2ccc(NC(=O)C34CC5CC(C3)C(N3CCOCC3)C(C5)C4)cc2OC)ncc1C(F)(F)F (stereo not drawn) show?
## Output 27

## Input Bench note: what IC50 did CNC(=O)c1cccc(C)c1Nc1nc(Nc2ccc(NC3C4CC5CC(C4)CC3C5)cc2OC)ncc1C(F)(F)F (stereo not drawn) show?
## Output 111

## Input Bench note: what IC50 did CNC(=O)c1cccc(C)c1Nc1nc(Nc2ccc(NC3CCN(C4C5CC6CC(C5)CC4C6)CC3)cc2OC)ncc1C(F)(F)F (stereo not drawn) show?
## Output 118

## Input Bench note: what IC50 did CNC(=O)c1cccc(C)c1Nc1nc(Nc2ccc(NC3C4CC5CC3CC(C(=O)N3CCN(C)CC3)(C5)C4)cc2OC)ncc1C(F)(F)F (stereo not drawn) show?
## Output 234

## Input Bench note: what IC50 did `CNC(=O)c1cccc(C)c1Nc1nc(Nc2ccc(NC3CCN([C@H]4C5CC6CC4C[C@](O)(C6)C5)CC3)cc2OC)ncc1C(F)(F)F` show?
## Output 38

## Input Bench note: what IC50 did `CNC(=O)c1cccc(C)c1Nc1nc(Nc2ccc(N3CCN([C@H]4C5CC6CC4C[C@@](O)(C6)C5)CC3)cc2OC)ncc1C(F)(F)F` show?
## Output 32

## Input Bench note: what IC50 did `CNC(=O)c1cccc(C)c1Nc1nc(Nc2ccc(N3CCN([C@H]4C5CC6CC4C[C@](O)(C6)C5)CC3)cc2OC)ncc1C(F)(F)F` show?
## Output 34
